meta.source: patent US7732475B2

Molecular target: HDAC2 (Homo sapiens, UniProt Q92769)
Sequence (Q92769 with tags, fused parts or gaps): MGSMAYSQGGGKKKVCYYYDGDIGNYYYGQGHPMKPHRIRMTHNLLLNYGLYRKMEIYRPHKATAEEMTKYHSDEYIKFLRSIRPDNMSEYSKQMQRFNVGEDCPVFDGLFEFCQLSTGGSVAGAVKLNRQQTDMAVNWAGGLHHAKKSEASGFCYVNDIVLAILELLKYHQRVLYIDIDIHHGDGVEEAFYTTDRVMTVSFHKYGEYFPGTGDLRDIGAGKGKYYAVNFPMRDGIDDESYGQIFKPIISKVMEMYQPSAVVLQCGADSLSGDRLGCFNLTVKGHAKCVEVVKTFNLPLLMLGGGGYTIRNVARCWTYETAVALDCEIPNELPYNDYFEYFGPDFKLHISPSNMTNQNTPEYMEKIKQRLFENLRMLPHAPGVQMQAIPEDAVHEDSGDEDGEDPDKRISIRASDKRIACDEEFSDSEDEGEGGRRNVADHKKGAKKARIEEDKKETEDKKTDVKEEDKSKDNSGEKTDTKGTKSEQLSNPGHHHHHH
Assay: HDAC2 fluorescence inhibition assay (tBoc-Lys(Ac)-AMC)
MEASURE_NAME: IC50

// known answers, use as guide
# COMPOUND, MEASURE_NAME, RESULT
rows = [
    ("Nc1ccc(-c2ccccc2)cc1NC(=O)c1ccc(Cn2cc3ccccc3n2)cc1 [Example 27]", "IC50", "≤ 50 nM"),
    ("COc1ccc2c(C)n(Cc3ccc(C(=O)Nc4cc(-c5cccs5)ccc4N)cc3)nc2c1 [Example 116]", "IC50", "50 to 100 nM"),
    ("Nc1ccccc1NC(=O)c1ccc(Cn2ncc3cc(NC(=O)c4ccccc4)ccc32)cc1 [Example 6]", "IC50", "≤ 50 nM"),
    ("Nc1ccc(-c2ccccc2)cc1NC(=O)c1ccc(Cn2cc3cccnc3n2)cc1 [Example 26]", "IC50", "≤ 50 nM"),
    ("CC(=O)Nc1ccc2c(c1)c(C)nn2Cc1ccc(C(=O)Nc2ccccc2N)cc1 [Example 107]", "IC50", "50 to 100 nM"),
    ("COCCCNC(=O)c1cnn(Cc2ccc(C(=O)Nc3ccccc3N)cc2)c1 [Example 152]", "IC50", "≤ 50 nM"),
    ("Cc1nn(Cc2ccc(C(=O)Nc3ccccc3N)cc2)c2cccc(F)c12 [Example 54]", "IC50", "100 to 500 nM"),
    ("NC(=O)c1cnn(Cc2ccc(C(=O)Nc3ccccc3N)cc2)c1 [Example 142]", "IC50", "50 to 100 nM"),
    ("Cc1c2ccc(O)cc2nn1Cc1ccc(C(=O)Nc2ccccc2N)cc1 [Example 75]", "IC50", "100 to 500 nM"),
    ("Cc1c2cccc(F)c2nn1Cc1ccc(C(=O)Nc2ccccc2N)cc1 [Example 53]", "IC50", "50 to 100 nM"),
]

So what does the record say about IC50 for Nc1ccccc1NC(=O)c1ccc(Cn2nnc3ccccc32)cc1 [Example 100] ?
50 to 100 nM

So what does the record say about IC50 for COCCOC(=O)Nc1ccc2nn(Cc3ccc(C(=O)Nc4ccccc4N)cc3)cc2c1 [Example 11] ?
≤ 50 nM

So what does the record say about IC50 for Nc1ccccc1NC(=O)c1ccc(Cn2cc3cc(NC(=O)N4CCOCC4)ccc3n2)cc1 [Example 18] ?
≤ 50 nM

So what does the record say about IC50 for CC(=O)Nc1ccc2nn(Cc3ccc(C(=O)Nc4ccccc4N)cc3)c(C)c2c1 [Example 106] ?
≤ 50 nM

So what does the record say about IC50 for Cc1nn(Cc2ccc(C(=O)Nc3ccccc3N)cc2)c2cc(O)ccc12 [Example 74] ?
≤ 50 nM

So what does the record say about IC50 for Cc1c2ccc(C(F)(F)F)cc2nn1Cc1ccc(C(=O)Nc2ccccc2N)cc1 [Example 92] ?
50 to 100 nM

So what does the record say about IC50 for Cc1ccnn1Cc1ccc(C(=O)Nc2ccccc2N)cc1 [Example 148] ?
100 to 500 nM

So what does the record say about IC50 for Nc1ccccc1NC(=O)c1ccc(Cn2ncc3c(Cl)cccc32)cc1 [Example 42] ?
≤ 50 nM
